Assay: Cyto-toxicity (MTT assay)
Format: cell-based
Method: On day 1 calculate the number of cells required for the assay and seed 3×10^4 cells in 200 μl per well. Weigh the compound and dissolve it in DMSO to get 10 mM stock which is further diluted to 3 mM and 1 mM. […] Add DMSO to controls in a way to obtain final concentration of solvent that is not greater than 1%. Incubate for 4 days in 5% CO2 incubator at 37° C. […] Add 200 μl of 0.1N acidic isopropanol to dissolve the crystals and read the plate at 590 nm. […]
Would you mind telling me the reported viability at 4 days, 0.1 µM of each entry?
Answers are plain numbers, in %.

- Compound: "CC(C)C1=C2[C@H]3CC[C@@H]4[C@@]5(C)CC[C@H](OC(=O)[C@H]6C[C@@H](C(=O)O)C6(C)C)C(C)(C)[C@@H]5CC[C@@]4(C)[C@]3(C)CC[C@@]2(NC(=O)C(C)(C)NC(=O)c2ccc(Cl)c(Cl)c2)CC1=O [Example 4]"
  Result unit: "%"
  viability at 4 days, 0.1 µM: 12

Look up viability at 4 days, 0.1 µM: Cc1ccc(C(=O)NC2(C(=O)N[C@@]34CC[C@]5(C)[C@H](CC[C@@H]6[C@@]7(C)CC[C@H](OC(=O)[C@H]8C[C@@H](C(=O)O)C8(C)C)C(C)(C)[C@@H]7CC[C@]65C)C3=C(C(C)C)C(=O)C4)CCCCC2)cc1 [Example 50]
0

* * *

Would you mind telling me the reported viability at 4 days, 0.1 µM of each entry?
Test: Cyto-toxicity (MTT assay)
Type: cell-based
Structures can show the parent of a compound that is named as a salt.
Give bare numbers, in %.

- Compound: "CC(C)C1=C2[C@H]3CC[C@@H]4[C@@]5(C)CC[C@H](OC(=O)[C@H]6C[C@@H](C(=O)O)C6(C)C)C(C)(C)[C@@H]5CC[C@@]4(C)[C@]3(C)CC[C@@]2(NC(=O)C(C)(C)NC(=O)C2(c3ccc(Cl)cc3)CC2)CC1=O [Example 2]"
  Measurement kind: "viability at 4 days, 0.1 µM"
  Result unit: "%"
  Recorded number: 9
- Compound: "CC(C)C1=C2[C@H]3CC[C@@H]4[C@@]5(C)CC[C@H](OC(=O)[C@H]6C[C@@H](C(=O)O)C6(C)C)C(C)(C)[C@@H]5CC[C@@]4(C)[C@]3(C)CC[C@@]2(NC(=O)C(C)(C)NC(=O)c2ccoc2)CC1=O [Example 24]"
  Measurement kind: "viability at 4 days, 0.1 µM"
  Result unit: "%"
  Recorded number: 21
- Compound: "CC(C)C1=C2[C@H]3CC[C@@H]4[C@@]5(C)CC[C@H](OC(=O)[C@H]6C[C@@H](C(=O)O)C6(C)C)C(C)(C)[C@@H]5CC[C@@]4(C)[C@]3(C)CC[C@@]2(NC(=O)C(C)(C)NCCN(C)C)CC1=O [Example 73]"
  Measurement kind: "viability at 4 days, 0.1 µM"
  Result unit: "%"
  Recorded number: 11
- Compound: "CC(C)C1=C2[C@H]3CC[C@@H]4[C@@]5(C)CC[C@H](OC(=O)[C@H]6C[C@@H](C(=O)O)C6(C)C)C(C)(C)[C@@H]5CC[C@@]4(C)[C@]3(C)CC[C@@]2(NC(=O)C(C)(C)NC(=O)C(C)(C)N)CC1=O [Example 11, hydrochloride]"
  Measurement kind: "viability at 4 days, 0.1 µM"
  Result unit: "%"
  Recorded number: 3
- Compound: "Cc1cccnc1C(=O)NC(C)(C)C(=O)N[C@@]12CC[C@]3(C)[C@H](CC[C@@H]4[C@@]5(C)CC[C@H](OC(=O)[C@H]6C[C@@H](C(=O)O)C6(C)C)C(C)(C)[C@@H]5CC[C@]43C)C1=C(C(C)C)C(=O)C2 [Example 29]"
  Measurement kind: "viability at 4 days, 0.1 µM"
  Result unit: "%"
  Recorded number: 3
- Compound: "CC(C)C1=C2[C@H]3CC[C@@H]4[C@@]5(C)CC[C@H](OC(=O)[C@H]6C[C@@H](C(=O)O)C6(C)C)C(C)(C)[C@@H]5CC[C@@]4(C)[C@]3(C)CC[C@@]2(NC(=O)C(C)(C)NS(C)(=O)=O)CC1=O [Example 63]"
  Measurement kind: "viability at 4 days, 0.1 µM"
  Result unit: "%"
  Recorded number: 16

Working through the 2 compounds below one at a time, give viability at 4 days, 0.1 µM for each.
1. CC(C)C1=C2[C@H]3CC[C@@H]4[C@@]5(C)CC[C@H](OC(=O)[C@H]6C[C@@H](C(=O)O)C6(C)C)C(C)(C)[C@@H]5CC[C@@]4(C)[C@]3(C)CC[C@@]2(NC(=O)C(C)(C)NC(=O)C2(c3ccccc3)CCCC2)CC1=O [Example 27]
2. CC(C)C1=C2[C@H]3CC[C@@H]4[C@@]5(C)CC[C@H](OC(=O)[C@H]6C[C@@H](C(=O)O)C6(C)C)C(C)(C)[C@@H]5CC[C@@]4(C)[C@]3(C)CC[C@@]2(NC(=O)C2(NC(=O)c3ccc(Cl)cc3)CCCC2)CC1=O [Example 46]

2
12

* * *

Would you mind telling me the reported AUC(0-t) of each entry?
Experiment: Single dose oral pharmacokinetic study
Type: in vivo
Conditions: mouse; Mice oral PK @30 mg/kg; plasma; vehicle 10% Solutol+20% PEG; read-out: AUC0-t
Description: The test item was administered through oral route to animals (rat/mice) at 30 mg/kg dose in a suitable vehicle (10% Solutol+20% PEG) at 10 ml/kg dose volume. […] Standard solutions of the test compound 1 mg/mL solutions were prepared in DMSO and further dilutions were made in methanol. […] After reconstitution with solvent (50% Acetonitrile in Buffer) samples were analyzed by LCMSMS to get the concentrations to calculate PK Parameters.
One number for each entry, in µg·h/mL.

- Structure as smiles: "Cc1cn(-c2ccc(C(=O)NC(C)(C)C(=O)N[C@@]34CC[C@]5(C)[C@H](CC[C@@H]6[C@@]7(C)CC[C@H](OC(=O)[C@H]8C[C@@H](C(=O)O)C8(C)C)C(C)(C)[C@@H]7CC[C@]65C)C3=C(C(C)C)C(=O)C4)cc2)cn1"
  AUC(0-t) / µg·h/mL: 236
- Structure as smiles: "CC(C)C1=C2[C@H]3CC[C@@H]4[C@@]5(C)CC[C@H](OC(=O)[C@@H]6C[C@H](C(=O)O)C6(C)C)C(C)(C)[C@@H]5CC[C@@]4(C)[C@]3(C)CC[C@@]2(NC(=O)C(C)(C)NC(=O)c2ccc(Cl)cc2)CC1=O"
  AUC(0-t) / µg·h/mL: 191
- Structure as smiles: "CC(C)C1=C2[C@H]3CC[C@@H]4[C@@]5(C)CC[C@H](OC(=O)[C@H]6C[C@@H](C(=O)O)C6(C)C)C(C)(C)[C@@H]5CC[C@@]4(C)[C@]3(C)CC[C@@]2(NC(=O)C(C)(C)NC(=O)c2ccc3[nH]c(-c4cnccn4)nc3c2)CC1=O"
  AUC(0-t) / µg·h/mL: 141
- Structure as smiles: "CCOC(=O)NC(C)(C)C(=O)N[C@@]12CC[C@]3(C)[C@H](CC[C@@H]4[C@@]5(C)CC[C@H](OC(=O)[C@H]6C[C@@H](C(=O)O)C6(C)C)C(C)(C)[C@@H]5CC[C@]43C)C1=C(C(C)C)C(=O)C2"
  AUC(0-t) / µg·h/mL: 336
- Structure as smiles: "Cc1ccc(C(=O)NC2(C(=O)N[C@@]34CC[C@]5(C)[C@H](CC[C@@H]6[C@@]7(C)CC[C@H](OC(=O)[C@H]8C[C@@H](C(=O)O)C8(C)C)C(C)(C)[C@@H]7CC[C@]65C)C3=C(C(C)C)C(=O)C4)CC2)cc1"
  AUC(0-t) / µg·h/mL: 343

Working through the 2 compounds below one at a time, give AUC(0-t) for each.
1. CC(C)C1=C2[C@H]3CC[C@@H]4[C@@]5(C)CC[C@H](OC(=O)[C@H]6C[C@@H](C(=O)O)C6(C)C)C(C)(C)[C@@H]5CC[C@@]4(C)[C@]3(C)CC[C@@]2(NC(=O)C(C)(C)NC(=O)c2cnccn2)CC1=O
2. CC(C)C1=C2[C@H]3CC[C@@H]4[C@@]5(C)CC[C@H](OC(=O)[C@H]6C[C@@H](C(=O)O)C6(C)C)C(C)(C)[C@@H]5CC[C@@]4(C)[C@]3(C)CC[C@@]2(NC(=O)C(C)(C)NC(=O)c2ccc3[nH]cnc3c2)CC1=O

1. 289
2. 61.3

Working through the 4 compounds below one at a time, give AUC(0-t) for each.
1. Cc1cc(C(=O)NC(C)(C)C(=O)N[C@@]23CC[C@]4(C)[C@H](CC[C@@H]5[C@@]6(C)CC[C@H](OC(=O)[C@H]7C[C@@H](C(=O)O)C7(C)C)C(C)(C)[C@@H]6CC[C@]54C)C2=C(C(C)C)C(=O)C3)c(C)o1
2. CC(C)C1=C2[C@H]3CC[C@@H]4[C@@]5(C)CC[C@H](OC(=O)[C@H]6C[C@@H](C(=O)O)C6(C)C)C(C)(C)[C@@H]5CC[C@@]4(C)[C@]3(C)CC[C@@]2(NC(=O)C(C)(C)NC(=O)c2ccc(N)nc2)CC1=O
3. CC(C)C1=C2[C@H]3CC[C@@H]4[C@@]5(C)CC[C@H](OC(=O)[C@H]6C[C@@H](C(=O)O)C6(C)C)C(C)(C)[C@@H]5CC[C@@]4(C)[C@]3(C)CC[C@@]2(NC(=O)C(C)(C)NC(=O)c2ccc(S(C)(=O)=O)cc2)CC1=O
4. CC(C)C1=C2[C@H]3CC[C@@H]4[C@@]5(C)CC[C@H](OC(=O)[C@H]6C[C@@H](C(=O)O)C6(C)C)C(C)(C)[C@@H]5CC[C@@]4(C)[C@]3(C)CC[C@@]2(NC(=O)C(C)(C)NC(=O)c2ccc(C(F)(F)F)cc2)CC1=O

1: 231; 2: 100; 3: 277; 4: 336

Working through the 4 compounds below one at a time, give AUC(0-t) for each.
1. CC(C)C1=C2[C@H]3CC[C@@H]4[C@@]5(C)CC[C@H](OC(=O)[C@H]6C[C@@H](C(=O)O)C6(C)C)C(C)(C)[C@@H]5CC[C@@]4(C)[C@]3(C)CC[C@@]2(NC(=O)C2(NC(=O)c3ccc(Cl)cc3)CCC2)CC1=O
2. CC(C)C1=C2[C@H]3CC[C@@H]4[C@@]5(C)CC[C@H](OC(=O)[C@H]6C[C@@H](C(=O)O)C6(C)C)C(C)(C)[C@@H]5CC[C@@]4(C)[C@]3(C)CC[C@@]2(NC(=O)C2(NC(=O)c3ccc(Cl)cc3)CC2)CC1=O
3. CC(C)C1=C2[C@H]3CC[C@@H]4[C@@]5(C)CC[C@H](OC(=O)[C@H]6C[C@@H](C(=O)O)C6(C)C)C(C)(C)[C@@H]5CC[C@@]4(C)[C@]3(C)CC[C@@]2(NC(=O)C(C)(C)NC(=O)c2ccc(Cl)c(Cl)c2)CC1=O
4. CC(C)C1=C2[C@H]3CC[C@@H]4[C@@]5(C)CC[C@H](OC(=O)[C@H]6C[C@@H](C(=O)O)C6(C)C)C(C)(C)[C@@H]5CC[C@@]4(C)[C@]3(C)CC[C@@]2(NC(=O)C(C)(C)NC(=O)CN2CCCCC2)CC1=O

[481, 874, 185, 69.8]
